Test: Antiproliferative activity against human WERI cells assessed as inhibition of cell proliferation by propidium iodide uptake based fluoroskan microplate reader analysis
Assay type: functional
Hi there, I'd appreciate the recorded IC50 for every entry that follows.
The figure you give is taken to be in nM; do not add the unit.

Request: What value of IC50 has been reported for the following molecule? "Clc1cccc2c1CCN=C2c1sc2ccccc2c1Cl"
Result: 2260

Request: For "COc1ccc(C)c(N(Cc2ccncc2)C(=O)c2sc3ccccc3c2Cl)c1" then?
Result: 5730

Request: For COc1ccc2c(c1)CCNC2c1sc2ccccc2c1Cl (configuration not stated) then?
Result: 1000

Request: For "Cc1ccc2c(c1)CCCN2C(=O)c1sc2cccc(C)c2c1Cl" then?
Result: 2020

Request: For "COc1ccc2c(Cl)c(C(=O)N3CCCc4cc(C)ccc43)sc2c1" then?
Result: 4030

Request: For "COc1ccc2c(c1)C(c1sc3ccccc3c1Cl)=NCC2" then?
Result: 3210

Request: For "Cc1ccc(S(=O)(=O)Nc2sc3ccccc3c2Cl)cc1" then?
Result: 3590

Request: For "Cc1ccc(N(Cc2cccc(C)n2)C(=O)c2sc3ccccc3c2Cl)c(C)c1" then?
Result: 840

Request: For "Cc1c(Cc2cccc(Cl)c2)c(=O)oc2cc(O)ccc12" then?
Result: 5590

Request: For "COc1ccc2c(c1)CCN=C2c1sc2ccccc2c1Cl" then?
Result: 1190

Request: For "COc1ccc(C(=O)c2sc3ccccc3c2Cl)cc1" then?
Result: 4000

Request: For "COc1cc2c(cc1OC)C(c1sc3ccccc3c1Cl)=NCC2" then?
Result: 50
